- Test system: Escherichia coli EC14
- test_description: MIC, standard agar-dilution assay
- Format: cell-based
- experimental_setup: Escherichia coli, EC14; Table IV; agar dilution; read-out: minimal inhibitory concentration (MIC)
MIC reference
experimental_readout: MIC

# compound_structure_string, tested_system, result
data = [
    ("CC[C@H]1OC(=O)[C@H](C)[C@@H](O[C@H]2C[C@@](C)(OC)[C@@H](O)[C@H](C)O2)[C@H](C)[C@@H](O[C@@H]2O[C@H](C)C[C@H](N(C)C)[C@H]2O)[C@](C)(O)C[C@@H](C)[C@H](NCCC2=C(C)CCCC2(C)C)[C@H](C)[C@@H](O)[C@]1(C)O", "Escherichia coli EC14", "> 128 µg/mL"),
    ("CC[C@H]1OC(=O)[C@H](C)[C@@H](O[C@H]2C[C@@](C)(OC)[C@@H](O)[C@H](C)O2)[C@H](C)[C@@H](O[C@@H]2O[C@H](C)C[C@H](N(C)C)[C@H]2O)[C@](C)(O)C[C@@H](C)[C@H](NCC#Cc2ccccc2)[C@H](C)[C@@H](O)[C@]1(C)O", "Escherichia coli EC14", "> 128 µg/mL"),
]

---

- Tested on: Staphylococcus aureus X400
- test_description: MIC, standard agar-dilution assay
- Type: cell-based
- experimental_setup: Staphylococcus aureus, X400; Table IV; methicillin-resistant strain; inducibly erythromycin-resistant; read-out: minimal inhibitory concentration (MIC)

# compound_structure_string, tested_system, MIC
measured = [
    ("CCCCN[C@@H]1[C@H](C)[C@@H](O)[C@](C)(O)[C@@H](CC)OC(=O)[C@H](C)[C@@H](O[C@H]2C[C@@](C)(OC)[C@@H](O)[C@H](C)O2)[C@H](C)[C@@H](O[C@@H]2O[C@H](C)C[C@H](N(C)C)[C@H]2O)[C@](C)(O)C[C@H]1C", "Staphylococcus aureus X400", "> 128 µg/mL"),
    ("CC[C@H]1OC(=O)[C@H](C)[C@@H](O[C@H]2C[C@@](C)(OC)[C@@H](O)[C@H](C)O2)[C@H](C)[C@@H](O[C@@H]2O[C@H](C)C[C@H](N(C)C)[C@H]2O)[C@](C)(O)C[C@@H](C)[C@H](NCCOCCOC)[C@H](C)[C@@H](O)[C@]1(C)O", "Staphylococcus aureus X400", "> 128 µg/mL"),
]

---

- Test system: Streptococcus sp. group D X66
- test_description: MIC, standard agar-dilution assay
- Format: cell-based
- experimental_setup: Streptococcus, read-out: minimal inhibitory concentration (MIC)
experimental_readout: MIC (µg/mL)

# compound_structure_string, tested_system, scale_unit, result_number
measured = [
    ("CCCCCCCCCCCCN[C@@H]1[C@H](C)[C@@H](O)[C@](C)(O)[C@@H](CC)OC(=O)[C@H](C)[C@@H](O[C@H]2C[C@@](C)(OC)[C@@H](O)[C@H](C)O2)[C@H](C)[C@@H](O[C@@H]2O[C@H](C)C[C@H](N(C)C)[C@H]2O)[C@](C)(O)C[C@H]1C", "Streptococcus sp. group D X66", "µg/mL", 1),
    ("CCCCC/C=C\\CCCN[C@@H]1[C@H](C)[C@@H](O)[C@](C)(O)[C@@H](CC)OC(=O)[C@H](C)[C@@H](O[C@H]2C[C@@](C)(OC)[C@@H](O)[C@H](C)O2)[C@H](C)[C@@H](O[C@@H]2O[C@H](C)C[C@H](N(C)C)[C@H]2O)[C@](C)(O)C[C@H]1C", "Streptococcus sp. group D X66", "µg/mL", 0.06),
    ("CCCCCCCCCCN[C@@H]1[C@H](C)[C@@H](O)[C@@H](C)[C@@H](CC)OC(=O)[C@H](C)[C@@H](O[C@H]2C[C@@](C)(OC)[C@@H](O)[C@H](C)O2)[C@H](C)[C@@H](O[C@@H]2O[C@H](C)C[C@H](N(C)C)[C@H]2O)[C@](C)(O)C[C@H]1C", "Streptococcus sp. group D X66", "µg/mL", 0.5),
]
